MIC for assorted compounds
# Test system: Candida albicans
# Assay Method Text: Antifungal activity against Candida albicans Y0109 after 24 hrs by serial dilution method
# Format: functional
# Test Context: Y0109, 24 h

>  <Smiles Entry>
C[C@@H](N1Cc2cc(-c3cccc(C#N)c3)sc2C1=O)[C@](O)(Cn1cncn1)c1ccc(F)cc1F

>  <MIC / µg/mL>
0.0625

$$$$
>  <Smiles Entry>
C[C@@H](N1Cc2cc(-c3ccncc3)sc2C1=O)[C@](O)(Cn1cncn1)c1ccc(F)cc1F

>  <MIC / µg/mL>
0.0312

$$$$
>  <Smiles Entry>
C[C@@H](N1Cc2cc(-c3ccc(C#N)nc3)sc2C1=O)[C@](O)(Cn1cncn1)c1ccc(F)cc1F

>  <MIC / µg/mL>
0.0312

$$$$
>  <Smiles Entry>
C[C@@H](N1Cc2cc(Br)sc2C1=O)[C@](O)(Cn1cncn1)c1ccc(F)cc1F

>  <MIC / µg/mL>
0.0156

$$$$

* * *

MIC for assorted compounds
# System: Candida albicans
# Assay Method Text: Antifungal activity against Candida albicans Y0109 after 24 hrs by serial dilution method
# Format: functional
# Test Context: Y0109, 24 h

>  <Smiles Entry>
C[C@@H](N1CCc2sc(-c3ccncc3)cc2C1)[C@](O)(Cn1cncn1)c1ccc(F)cc1F

>  <Unit Descriptor>
µg/mL

>  <MIC>
0.5

$$$$
>  <Smiles Entry>
C[C@@H](N1Cc2cc(-c3ccc(F)cc3)sc2C1=O)[C@](O)(Cn1cncn1)c1ccc(F)cc1F

>  <Unit Descriptor>
µg/mL

>  <MIC>
0.0312

$$$$
>  <Smiles Entry>
COc1ccc(-c2cc3c(s2)CN([C@H](C)[C@](O)(Cn2cncn2)c2ccc(F)cc2F)C3=O)cn1

>  <Unit Descriptor>
µg/mL

>  <MIC>
0.0156

$$$$
>  <Smiles Entry>
C[C@@H](N1Cc2cc(-c3cncc(C#N)c3)sc2C1=O)[C@](O)(Cn1cncn1)c1ccc(F)cc1F

>  <Unit Descriptor>
µg/mL

>  <MIC>
0.0312

$$$$
>  <Smiles Entry>
COc1ccc(-c2cc3c(s2)C(=O)N([C@H](C)[C@](O)(Cn2cncn2)c2ccc(F)cc2F)C3)cn1

>  <Unit Descriptor>
µg/mL

>  <MIC>
0.0312

$$$$
>  <Smiles Entry>
Cc1cccc(-c2cc3c(s2)C(=O)N([C@H](C)[C@](O)(Cn2cncn2)c2ccc(F)cc2F)C3)c1

>  <Unit Descriptor>
µg/mL

>  <MIC>
0.0625

$$$$
>  <Smiles Entry>
C[C@@H](N1Cc2cc(-c3cccc(Cl)c3)sc2C1=O)[C@](O)(Cn1cncn1)c1ccc(F)cc1F

>  <Unit Descriptor>
µg/mL

>  <MIC>
0.0625

$$$$
>  <Smiles Entry>
COc1cccc(-c2cc3c(s2)C(=O)N([C@H](C)[C@](O)(Cn2cncn2)c2ccc(F)cc2F)C3)c1

>  <Unit Descriptor>
µg/mL

>  <MIC>
0.0625

$$$$

* * *

MIC for assorted compounds
# System: Aspergillus fumigatus
# Assay Method Text: Antifungal activity against Aspergillus fumigatus 7544 after 48 hrs by serial dilution method
# Type: functional
# Test Context: Aspergillus fumigatus, 7544, 48 h
Assay Metric: MIC (µg/mL)

>  <Smiles Entry>
C[C@@H](N1Cc2cc(-c3cccc(Cl)c3)sc2C1=O)[C@](O)(Cn1cncn1)c1ccc(F)cc1F

>  <Unit Descriptor>
µg/mL

>  <Relation Sign>
=

>  <Test Result>
8

$$$$
>  <Smiles Entry>
Cc1cccc(-c2cc3c(s2)C(=O)N([C@H](C)[C@](O)(Cn2cncn2)c2ccc(F)cc2F)C3)c1

>  <Unit Descriptor>
µg/mL

>  <Relation Sign>
=

>  <Test Result>
4

$$$$
>  <Smiles Entry>
C[C@@H](N1Cc2cc(Br)sc2C1=O)[C@](O)(Cn1cncn1)c1ccc(F)cc1F

>  <Unit Descriptor>
µg/mL

>  <Relation Sign>
=

>  <Test Result>
0.25

$$$$
>  <Smiles Entry>
C[C@@H](N1Cc2cc(-c3ccc(F)nc3)sc2C1=O)[C@](O)(Cn1cncn1)c1ccc(F)cc1F

>  <Unit Descriptor>
µg/mL

>  <Relation Sign>
=

>  <Test Result>
8

$$$$
>  <Smiles Entry>
C[C@@H](c1ncncc1F)[C@](O)(Cn1cncn1)c1ccc(F)cc1F

>  <Unit Descriptor>
µg/mL

>  <Relation Sign>
=

>  <Test Result>
0.25

$$$$
>  <Smiles Entry>
COc1cccc(-c2cc3c(s2)C(=O)N([C@H](C)[C@](O)(Cn2cncn2)c2ccc(F)cc2F)C3)c1

>  <Unit Descriptor>
µg/mL

>  <Relation Sign>
=

>  <Test Result>
8

$$$$
>  <Smiles Entry>
C[C@@H](N1Cc2sc(-c3cncc(F)c3)cc2C1=O)[C@](O)(Cn1cncn1)c1ccc(F)cc1F

>  <Unit Descriptor>
µg/mL

>  <Relation Sign>
>

>  <Test Result>
64

$$$$
>  <Smiles Entry>
C[C@@H](N1CCc2nc(-c3cncnc3)sc2C1)[C@](O)(Cn1cncn1)c1ccc(F)cc1F

>  <Unit Descriptor>
µg/mL

>  <Relation Sign>
=

>  <Test Result>
2

$$$$
